- MEASUREMENT_TARGET: target sequence ACAATTAAT (352 bp fragment, Plasmid C)
- EXPERIMENTAL_PROTOCOL: Quantitative DNase I footprint titration
- CONDITION_LABEL: 352 bp C, 22° C., pH 7.0, read-out: Dissociation Constant Kd
- Description: Compounds (1) through (20) according to this invention were screened for their ability to bind to specified DNA target sequences, using DNase I footprinting. Generally, the procedure described in Dervan, WO 98/50582 (1998), was followed. […] The 351 base pair dsDNA restriction fragment (SEQ ID NO. IV) of Plasmid A contained the target sequences AAAAAGCAAAAA, AAAAAGACAAAAA, and AAAAAGTACAAAAA. […] These fragments were used for quantitative DNase I footprinting experiments. […]
PROPERTY_LABEL: Kd (nM)
Kindly answer with a numeric value in nM, unit omitted.

[[record]]
compound = "Cn1cc(NC(=O)c2cc3ccccc3cn2)cc1C(=O)Nc1cc(C(=O)Nc2cc(C(=O)NCCN3CCCCC3)ns2)n(C)c1 [Compound 19]"
measured_number = 1


Would you kindly look at the next entry?
If you can, please state the reported Kd value of Cn1cc(NC(=O)c2cc(NC(=O)c3cc(NC(=O)c4cc5ccccc5cn4)cn3C)cn2C)cc1C(=O)NCCc1cccnc1 [Compound 14] .
5

----------
- MEASUREMENT_TARGET: target sequence AATACT (310 bp fragment, Plasmid B)
- EXPERIMENTAL_PROTOCOL: Quantitative DNase I footprint titration
- CONDITION_LABEL: 310 bp B, 22° C., pH 7.0, read-out: Dissociation Constant Kd
PROPERTY_LABEL: Kd (nM)
Numbers only here, please. The scale is nM.

Item: Cn1cc(NC(=O)c2cc(NC(=O)c3cc(NC(=O)c4ccc(Cl)cc4F)c[nH]3)cn2C)cc1C(=O)NCCN1CCOCC1 Test system: target sequence AATACT (310 bp fragment, Plasmid B) Read-out: Kd Value: ?
5

----------
Minimum Inhibitory Concentration (MIC) values for the compounds below.
- Tested on: Candida albicans ATCC 38247
- EXPERIMENTAL_PROTOCOL: Antifungal MIC
- Type: cell-based
- CONDITION_LABEL: Col. F = C. albicans ATCC 38247

For the compound Cn1cc(NC(=O)c2cc3ccccc3cn2)cc1C(=O)Nc1cc(C(=O)Nc2cc(C(=O)NCCN3CCCCC3)ns2)n(C)c1 [Compound 19] , what Minimum Inhibitory Concentration (MIC) is on record?
>32 µg/mL

Name the reported Minimum Inhibitory Concentration (MIC) value associated with the compound Cn1cc(NC(=O)c2cc3ccccc3cn2)cc1C(=O)Nc1cc(C(=O)Nc2cc(C(=O)NCCN3CCOCC3)n(CCN3CCOCC3)c2)n(C)c1 [Compound 17]
>32 µg/mL

GET /values?readout=Minimum Inhibitory Concentration (MIC)&item= Cn1cc(NC(=O)c2cc(NC(=O)CCNC(=O)c3cc(NC(=O)c4cc(NC(=O)c5cc(Br)c(Br)s5)cn4C)cn3C)cn2C)cc1C(=O)NCCC(=O)NCCN1CCCCC1 [Compound 3]
>32 µg/mL

----------
compounds and their reported Kd
- MEASUREMENT_TARGET: target sequence AATTAATCAT (352 bp fragment, Plasmid C)
- EXPERIMENTAL_PROTOCOL: Quantitative DNase I footprint titration
- CONDITION_LABEL: 352 bp C, 22° C., pH 7.0, read-out: Dissociation Constant Kd
Could you give me the number in nM? Just the number is fine.

Here are 4 compounds together with their reported answers.
[[record]]
compound = "Cn1cc(NC(=O)c2cc(NC(=O)c3cc(NC(=O)c4ccc(Cl)cc4F)c[nH]3)cn2C)cc1C(=O)NCCN1CCOCC1 [Compound 10]"
property_label = "Kd"
unit_symbol = "nM"
measured_number = 1

[[record]]
compound = "Cc1cc(NC(=O)c2cc(NC(=O)c3cc(NC(=O)c4nsc(NCCN5CCCCC5)c4Cl)cn3C)cn2C)sn1 [Compound 13]"
property_label = "Kd"
unit_symbol = "nM"
measured_number = 10

[[record]]
compound = "Cn1cc(NC(=O)c2cc(NC(=O)c3cc(NC(=O)c4ccc(F)cc4F)cn3C)cn2C)cc1C(=O)NCCN1CCCCCC1 [Compound 15]"
property_label = "Kd"
unit_symbol = "nM"
measured_number = 2

[[record]]
compound = "Cn1cc(NC(=O)c2sc3ccccc3c2Cl)cc1C(=O)Nc1cc(C(=O)NCCN2CCCCC2)n(CCN2CCOCC2)c1 [Compound 16]"
property_label = "Kd"
unit_symbol = "nM"
measured_number = 10


Form field - read-out: Kd; system: target sequence AATTAATCAT (352 bp fragment, Plasmid C); submitted item: Cn1cc(NC(=O)c2cc3ccccc3cn2)cc1C(=O)Nc1cc(C(=O)Nc2cc(C(=O)NCCN3CCOCC3)n(CCN3CCOCC3)c2)n(C)c1 [Compound 17]
5
